# assay-explanation: Cytotoxicity: LDH leakage from platelets
# Format: cell-based
# run-conditions: rat, washed platelets; naringenin 800 μM; LDH leakage; Table 1; read-out: Cytotoxicity (%)
measurement-kind: cytotoxicity at 5 min, 800 μM (%)
Please give a number only; it is taken to be in %.

Tell me cytotoxicity at 5 min, 800 μM reported for O=C1C[C@@H](c2ccc(O)cc2)Oc2cc(O)cc(O)c21 1.94

====

# Tested on: washed rat platelets
# assay-explanation: ADP (10 μM)-induced aggregation of washed rat platelets
# Assay type: cell-based
# run-conditions: ADP 10 μM
pIC50: −log10 of the molar value.
measurement-kind: pIC50

Answer briefly: pIC50 recorded on washed rat platelets for O=C1C[C@@H](c2ccc(O)cc2)Oc2cc(O)cc(O)c21 ~3.93
